These entries and their values trace back to paper PMC11050443.

Hi there, I'd appreciate the recorded pIC50 for every entry that follows.
Test system: T. brucei brucei (427 strain) bloodstream form
Experiment: In vitro T. brucei biological assay (Alamar blue)
Type: cell-based, Trypanosoma brucei brucei
Details: Trypanosoma brucei, 48 h, T. brucei brucei 427 strain bloodstream form growth inhibition; N = 3
Method: The in vitro cell culture preparation of T. brucei brucei (427 strain) trypomastigote bloodstream form followed by treatment with inhibitors has recently been described by Ajayi and colleagues. […] Parasites were counted in a Newbauer chamber. […] Fluorescence readings were measured using a Victor Nivo multimode microplate reader (PerkinElmer, Inc.; Shelton, CT, USA) at λex = 530 nm and λem = 590 nm. […]
A value of pIC50 is the negative decimal logarithm of a concentration given in moles per litre.

-- ask Reported pIC50 for O=[N+]([O-])C1=Cc2ccccc2OC1c1c(Cl)cccc1Cl (centres unmarked) [Compound 13] : what is it?
-- reply 5.89

-- ask pIC50 for CCOc1ccc(C2Oc3c(cc(Br)cc3OC)C=C2[N+](=O)[O-])cc1OC (centres unmarked) [Compound 8] ?
-- reply 6.13

-- ask Consider the molecule CCOc1ccc(C2Oc3ccccc3C=C2[N+](=O)[O-])cc1OCC (centres unmarked) [Compound 10] and give its measured pIC50.
-- reply 5.95

-- ask If you can, please state the reported pIC50 value of CCOc1ccc(C2Oc3ccc(Br)cc3C=C2[N+](=O)[O-])cc1OC (centres unmarked) [Compound 1] .
-- reply 6.21

-- ask Consider the molecule CCOc1ccc(C2Oc3c(Cl)cc(Cl)cc3C=C2[N+](=O)[O-])cc1OCC (centres unmarked) [Compound 9] and give its measured pIC50.
-- reply 6.18

-- ask Give its pIC50 value. Item: O=[N+]([O-])C1=Cc2ccccc2OC1c1ccccc1Cl (centres unmarked) [Compound 12, 2-(2-Chlorophenyl)-3-nitro-2H -chromene]
-- reply 5.78

-- ask Report pIC50 for CCOc1ccc(C2Oc3ccc(Br)cc3C=C2[N+](=O)[O-])cc1OCC (centres unmarked) [Compound 2] please.
-- reply 5.92
